test: Dissociation constant, pKa of the compound; format: physicochemical
measure_name: pKa

stdin: # input compound: C=CC(C)(C)C(OC(=O)c1ccco1)c1cc(OC)c2c(c1OC)/C(=N/O)C=C/C2=N\O (stereo unspecified) ; wanted: its pKa
stdout: > 10.2

* * *

Molecular target: Bombesin receptor subtype-3 (Rattus norvegicus, UniProt Q8K418)
Sequence (Q8K418 whole entry): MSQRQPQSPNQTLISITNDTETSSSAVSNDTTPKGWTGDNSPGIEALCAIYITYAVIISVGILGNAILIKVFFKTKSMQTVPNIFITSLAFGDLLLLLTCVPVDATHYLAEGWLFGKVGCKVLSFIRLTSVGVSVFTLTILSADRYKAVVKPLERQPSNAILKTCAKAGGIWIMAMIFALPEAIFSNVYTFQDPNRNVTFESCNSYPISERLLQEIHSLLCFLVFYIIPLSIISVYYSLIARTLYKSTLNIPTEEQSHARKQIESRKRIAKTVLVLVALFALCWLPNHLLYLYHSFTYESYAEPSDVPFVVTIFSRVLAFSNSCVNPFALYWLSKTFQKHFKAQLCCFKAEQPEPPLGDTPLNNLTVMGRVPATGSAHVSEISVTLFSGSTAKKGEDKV
Test: Agonist activity at rat BB3 transiently expressed in human HEK293T cells assessed as increase in IP-1 accumulation incubated for 60 mins by HTRF assay
measure_name: pEC50
Would you please state pEC50, meaning minus log10 of the concentration in mol/L, as a bare number?

stdin: # input compound: C=CC(C)(C)C(OC(=O)c1ccco1)c1cc(OC)c2c(c1OC)/C(=N/O)C=C/C2=N\O (stereo unspecified) ; wanted: its pEC50
stdout: 8.21

* * *

biological target: Bombesin receptor subtype-3 (Homo sapiens); assay: Agonist activity at human BB3 stably overexpressed in human NCI-H1299 cells assessed as increase in IP-1 accumulation incubated for 60 mins by HTRF assay; type: functional, cell-based
Sequence (P32247 whole entry): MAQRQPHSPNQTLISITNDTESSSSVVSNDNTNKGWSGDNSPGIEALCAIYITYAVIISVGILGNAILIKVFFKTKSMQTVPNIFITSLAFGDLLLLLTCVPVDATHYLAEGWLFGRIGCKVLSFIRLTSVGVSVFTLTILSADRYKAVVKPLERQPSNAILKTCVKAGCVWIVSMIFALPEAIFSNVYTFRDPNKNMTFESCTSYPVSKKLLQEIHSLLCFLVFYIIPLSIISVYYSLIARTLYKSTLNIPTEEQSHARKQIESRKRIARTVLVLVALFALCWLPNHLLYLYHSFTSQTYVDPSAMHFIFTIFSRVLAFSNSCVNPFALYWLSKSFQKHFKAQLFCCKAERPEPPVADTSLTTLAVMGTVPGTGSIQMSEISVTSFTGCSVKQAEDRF
Each entry below lists one item and its recorded EC50 value.
Answer in nM, number only, no unit symbol.

Some entries whose results are on file:
molecule | measure_name | observed_measurement
C=CC(C)(C)C(OC(=O)c1cccnc1Br)c1cc(OC)c2c(c1OC)/C(=N/O)C=C/C2=N\O (centres undefined) | EC50 | 101
C=CC(C)(C)C(OCCCCCO)c1cc(OC)c2c(c1OC)/C(=N/O)C=C/C2=N\O (centres undefined) | EC50 | 776
COc1cc(C(CC=C(C)C)OCCC(C)C)c(OC)c2c1/C(=N/O)C=C/C2=N\O (centres undefined) | EC50 | 520

stdin: # input molecule: C=CC(C)(C)C(OC(=O)c1cncc(F)c1)c1cc(OC)c2c(c1OC)/C(=N/O)C=C/C2=N\O (centres undefined) ; wanted: its EC50
stdout: 60

stdin: # input molecule: C=CC(C)(C)C(OCCCCO)c1cc(OC)c2c(c1OC)/C(=N/O)C=C/C2=N\O (centres undefined) ; wanted: its EC50
stdout: 226

stdin: # input molecule: C=CC(C)(C)C(OC(=O)c1cccnc1)c1cc(OC)c2c(c1OC)/C(=N/O)C=C/C2=N\O (centres undefined) ; wanted: its EC50
stdout: 15.7

* * *

Each entry below lists one item and its recorded EC50 value.
Target: UniProt O54798
Sequence (O54798 whole entry): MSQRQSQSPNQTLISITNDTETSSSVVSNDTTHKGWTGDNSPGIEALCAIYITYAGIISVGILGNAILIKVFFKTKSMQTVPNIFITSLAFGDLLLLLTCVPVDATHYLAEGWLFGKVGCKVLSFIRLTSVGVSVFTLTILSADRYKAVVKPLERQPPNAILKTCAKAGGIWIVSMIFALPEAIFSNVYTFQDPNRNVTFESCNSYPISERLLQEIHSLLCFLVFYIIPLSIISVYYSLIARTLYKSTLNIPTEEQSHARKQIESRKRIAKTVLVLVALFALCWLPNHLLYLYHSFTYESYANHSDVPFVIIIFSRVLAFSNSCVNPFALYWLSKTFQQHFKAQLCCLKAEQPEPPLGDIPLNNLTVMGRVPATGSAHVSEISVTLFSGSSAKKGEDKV
Assay: Agonist activity at mouse BB3 stably overexpressed in human HEK cells assessed as increase in IP-1 accumulation incubated for 60 mins by HTRF assay
Type: functional, cell-based

stdin: Notebook entry, UniProt O54798 assay: EC50 of COc1cc(C(O)CC=C(C)C)c(OC)c2c1/C(=N/O)C=C/C2=N\O (stereo not drawn) = ?
stdout: 0.624 µM

stdin: Notebook entry, UniProt O54798 assay: EC50 of C=CC(C)(C)C(OC(=O)c1ccco1)c1cc(OC)c2c(c1OC)/C(=N/O)C=C/C2=N\O (stereo not drawn) = ?
stdout: 0.0547 µM

stdin: Notebook entry, UniProt O54798 assay: EC50 of O[C@@](Cc1nc(CC2(C(F)(F)F)CC2)c[nH]1)(c1ccc(-n2cccn2)cc1)C(F)(F)F = ?
stdout: 0.000421 µM

Values from ChEMBL document CHEMBL5338816
